# System: LS-411N (Colorectal Carcinoma)
# Experimental details: combination Emax (second highest fraction inhibited in the dose matrix, 72 h); higher = more inhibition; extreme values may be limits of the assay
Please go through the items and note down their combination Emax.
Answers are plain numbers.

{"Compound": "Cc1c2c(nn1C)CSCc1cc(n(C)n1)CSc1cc(c3ccccc3c1)OCCCc1c(C(=O)O)n(C)c3c-2c(Cl)ccc13 [AZD5991] + CCN(CCO)CCCOc1ccc2c(Nc3cc(CC(=O)Nc4cccc(F)c4)[nH]n3)ncnc2c1 [AZD2811] (first compound max 1 µM, 7x7, partner max 1 µM)", "combination Emax": 0.178}
{"Compound": "CN(C)CCCOc1ccc(-c2ccc3ncc4c(c3c2)n(C2CCOCC2)c(=O)n4C)cn1 [AZD0156] + CCN(CCO)CCCOc1ccc2c(Nc3cc(CC(=O)Nc4cccc(F)c4)[nH]n3)ncnc2c1 [AZD2811] (first compound max 1 µM, 7x7, partner max 1 µM)", "combination Emax": 0.137}
{"Compound": "Cn1cnc2c(F)c(Nc3ccc(Br)cc3Cl)c(C(=O)NOCCO)cc21 [Selumetinib] + CCN(CCO)CCCOc1ccc2c(Nc3cc(CC(=O)Nc4cccc(F)c4)[nH]n3)ncnc2c1 [AZD2811] (first compound max 10 µM, 7x7, partner max 1 µM)", "combination Emax": 0.786}
{"Compound": "Cc1nc(Nc2ncc(C(=O)Nc3c(C)cccc3Cl)s2)cc(N2CCN(CCO)CC2)n1 [Dasatinib] + CC(=O)Nc1cccc(-n2c(=O)n(C3CC3)c(=O)c3c(Nc4ccc(I)cc4F)n(C)c(=O)c(C)c32)c1 [Trametinib] (first compound max 2 µM, 7x7, partner max 1 µM)", "combination Emax": 0.834}
{"Compound": "Cc1c2c(nn1C)CSCc1cc(n(C)n1)CSc1cc(c3ccccc3c1)OCCCc1c(C(=O)O)n(C)c3c-2c(Cl)ccc13 [AZD5991] + C[C@@H](Nc1cc(F)cc(F)c1)c1cc(C(=O)N(C)C)cc2c(=O)cc(N3CCOCC3)oc12 [AZD8186] (first compound max 1 µM, 7x7, partner max 3 µM)", "combination Emax": 0.178}

For every item below, please supply its combination Emax.
1. Cn1cnc2c(F)c(Nc3ccc(Br)cc3Cl)c(C(=O)NOCCO)cc21 [Selumetinib] + C[C@@H]1COCCN1C2=NC(=NC(=C2)C3(CC3)[S@](=N)(=O)C)C4=C5C=CNC5=NC=C4 [AZD6738] (first compound max 10 µM, 7x7, partner max 10 µM)
2. COc1cccc2c1C(=O)c1c(O)c3c(c(O)c1C2=O)C[C@@](O)(C(=O)CO)C[C@@H]3O[C@H]1C[C@H](N)[C@H](O)[C@H](C)O1 [Doxorubicin] + Cc1cc2ncnn2cc1Nc1ncc2c(n1)n(C1CCOCC1)c(=O)n2C [AZD7648] (first compound max 1 µM, 7x7, partner max 10 µM)
3. C[C@@H](c1ccc2nccn2c1)n1nnc2ncc(-c3cnn(C)c3)nc21 [Savolitinib] + CC1(C)CCC(CN2CCN(c3ccc(C(=O)NS(=O)(=O)c4ccc(NCC5CCOCC5)c([N+](=O)[O-])c4)c(Oc4cnc5[nH]ccc5c4)c3)CC2)=C(c2ccc(Cl)cc2)C1 [Venetoclax] (first compound max 1 µM, 7x7, partner max 1 µM)
4. COc1cccc(OCCCN)c1-c1cc(Nc2cnc(C#N)cn2)n[nH]1 [Prexasertib] + C[C@@H]1COCCN1C2=NC(=NC(=C2)C3(CC3)[S@](=N)(=O)C)C4=C5C=CNC5=NC=C4 [AZD6738] (first compound max 1 µM, 7x7, partner max 10 µM)
5. C[C@@H]1COCCN1c1cc(C2([S@](C)(=N)=O)CC2)nc(-c2ccnc3[nH]ccc23)n1 [AZD6738] + O=C(c1cc(Cc2n[nH]c(=O)c3ccccc23)ccc1F)N1CCN(C(=O)C2CC2)CC1 [Olaparib] (first compound max 10 µM, 7x7, partner max 10 µM)

1. 0.808
2. 0.508
3. 0.0933
4. 0.795
5. 0.383
